- Test System: T1, SegA (Sulfolobus solfataricus, UniProt Q981B3 1-220)
- T1 sequence: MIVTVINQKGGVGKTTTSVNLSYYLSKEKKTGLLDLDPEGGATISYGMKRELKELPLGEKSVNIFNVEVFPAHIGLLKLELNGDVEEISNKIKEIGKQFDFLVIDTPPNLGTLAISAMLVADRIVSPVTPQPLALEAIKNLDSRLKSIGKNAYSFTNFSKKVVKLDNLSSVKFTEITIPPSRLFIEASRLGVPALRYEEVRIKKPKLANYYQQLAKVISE
- Method Description: fluorescence polarization
Measurement Type: pKd
The quantity pKd is defined as the negative base-10 logarithm of the molar concentration.

Enquiry: Supply measured pKd of 24-bp nsDNA (dsDNA) DNA 1: AGGGTGTTCCACGTGAAACAGGGA DNA 2: TCCCTGTTTCACGTGGAACACCCT in your reply.
Return: 6.35
